target: BTK (Homo sapiens (Human)); assay: Btk in vitro inhibitory activity (one of Method A TR-FRET, Method B electrophoretic mobility shift, Method C radiometric filter binding); type: biochemical; conditions: determined using one of the methods of Example 355a, 355b and 355c; read-out: BTK IC50
Sequence (Q06187 whole entry): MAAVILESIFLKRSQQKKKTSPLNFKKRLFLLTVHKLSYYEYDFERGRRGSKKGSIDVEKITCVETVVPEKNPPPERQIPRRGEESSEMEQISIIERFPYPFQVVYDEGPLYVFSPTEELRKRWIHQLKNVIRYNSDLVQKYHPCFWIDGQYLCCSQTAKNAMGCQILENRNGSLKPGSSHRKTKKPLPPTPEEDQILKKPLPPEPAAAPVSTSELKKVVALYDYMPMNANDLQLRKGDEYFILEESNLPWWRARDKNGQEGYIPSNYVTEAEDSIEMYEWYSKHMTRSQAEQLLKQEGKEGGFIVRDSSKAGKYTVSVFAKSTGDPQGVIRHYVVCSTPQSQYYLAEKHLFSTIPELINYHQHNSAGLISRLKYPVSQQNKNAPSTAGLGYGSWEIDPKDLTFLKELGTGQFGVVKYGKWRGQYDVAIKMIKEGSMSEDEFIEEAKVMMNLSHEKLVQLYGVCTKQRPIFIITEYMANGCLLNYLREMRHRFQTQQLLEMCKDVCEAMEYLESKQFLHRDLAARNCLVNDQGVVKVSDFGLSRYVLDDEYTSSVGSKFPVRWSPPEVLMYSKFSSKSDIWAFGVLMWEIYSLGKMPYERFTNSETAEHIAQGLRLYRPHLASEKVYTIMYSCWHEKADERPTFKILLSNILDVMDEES
pIC50: −log10 of the molar value.
Readout kind: pIC50

> print(dat)
                                  smiles.str  value.measured
 1  CN(C)C(=O)N[C@@H]1CCCN(c2cnc(C(N)=O)c(Nc3cnn(C4CCN(C5CCCC5)CC4)c3)n2)C1          > 8.00
 2  N#CCC(=O)N1CCC(c2ccc(Nc3nc(N4CCC[C@@H](NC(=O)N5CCCCC5)C4)nnc3C(N)=O)cc2)CC1          > 8.00
 3  CC(C)Oc1ccc(Nc2nc(N3CCC[C@@H](NC(=O)N(C)C)C3)cnc2C(N)=O)cc1          > 8.00
 4  CN1CCCN([C@@H]2CCCN(c3cnc(C(N)=O)c(Nc4ccc(C5(C)CCN(C6CCCC6)CC5)cc4)n3)C2)C1=O          > 8.00
 5  NC(=O)c1nnc(N2CCC[C@@H](NC(=O)c3cc(C4CC4)on3)C2)nc1Nc1ccc(C(=O)N2CCOCC2)cc1    7.00 to 8.00
 6  CCN1CCC(c2ccc(Nc3nc(N4CCC[C@@H](NC(=O)c5ccc(OC)cc5)C4)cnc3C(N)=O)cc2)CC1          > 8.00
 7  COc1ccc(C(=O)N[C@@H]2CCCN(c3cnc(C(N)=O)c(Nc4ccc(C5CCN(C6CCCC6)CC5)cc4)n3)C2)cc1          > 8.00
 8  COc1ccc(C(=O)N[C@@H]2CCCN(c3cnc(C(N)=O)c(Nc4cc(C)ns4)n3)C2)cc1    7.00 to 8.00
 9  CN(C)C(=O)N[C@@H]1CCCN(c2cnc(C(N)=O)c(Nc3ccc(Cl)cc3)n2)C1    7.00 to 8.00
10  CCS(=O)(=O)N[C@@H]1CCCN(c2cnc(C(N)=O)c(Nc3ccc(C4CCN(C5CCCC5)CC4)cc3)n2)C1    7.00 to 8.00
11  Cc1nc(Nc2nc(N3CCC[C@@H](NC(=O)N(C)C)C3)cnc2C(N)=O)ccc1F    5.00 to 6.00
12  NC(=O)c1nnc(N2CCC[C@@H](NC(=O)c3ccn4ccnc4c3)C2)nc1Nc1ccc(C(=O)N2CCOCC2)cc1    7.00 to 8.00
13  NC(=O)c1ncc(N2CCC[C@@H](NC(=O)c3cccnc3)C2)nc1Nc1ccc(C2CCN(C3CCCC3)CC2)cc1          > 8.00
14  C[C@@H]1[C@H](NC(=O)N(C)C)CCCN1c1cnc(C(N)=O)c(Nc2ccc(C3(C)CCN(C4CCC4)CC3)cc2)n1          > 8.00
15  CC(=O)N1CCC(c2ccc(Nc3nc(N4CCC[C@@H](NC(=O)N5CCCCC5)C4)nnc3C(N)=O)cc2)CC1          > 8.00
16  COc1ccc(C(=O)N[C@@H]2CCCN(c3cnc(C(N)=O)c(Nc4ccc(C(C)C)cc4)n3)C2)cc1    7.00 to 8.00
17  CN(C(=O)N[C@@H]1CCCN(c2cnc(C(N)=O)c(Nc3ccc(C4(C(N)=O)CC4)cc3)n2)C1)c1cc(Cl)cc(C(F)(F)F)c1    7.00 to 8.00
18  CN(C)C(=O)N[C@@H]1CCCN(c2cnc(C(N)=O)c(Nc3ccc(C4CCN(C5CCC5)CC4)cc3)n2)C1          > 8.00
19  NC(=O)c1nnc(N2CCC[C@@H](NC(=O)N3CCOCC3)C2)nc1Nc1ccc(C(=O)N2CCOCC2)cc1    7.00 to 8.00

All values here come from patent US9656988B2.
